meta.source: patent US20250100996A1

ASSAYED SYSTEM: IKZF2 (Helios) (Homo sapiens)
Construct: Leu-Asp junction (codons ctcgac before the linker); mScarlet (behind P2A) (C, cleaved yes); expressed in transfected cells
Sequence (Q9UKS7 whole entry): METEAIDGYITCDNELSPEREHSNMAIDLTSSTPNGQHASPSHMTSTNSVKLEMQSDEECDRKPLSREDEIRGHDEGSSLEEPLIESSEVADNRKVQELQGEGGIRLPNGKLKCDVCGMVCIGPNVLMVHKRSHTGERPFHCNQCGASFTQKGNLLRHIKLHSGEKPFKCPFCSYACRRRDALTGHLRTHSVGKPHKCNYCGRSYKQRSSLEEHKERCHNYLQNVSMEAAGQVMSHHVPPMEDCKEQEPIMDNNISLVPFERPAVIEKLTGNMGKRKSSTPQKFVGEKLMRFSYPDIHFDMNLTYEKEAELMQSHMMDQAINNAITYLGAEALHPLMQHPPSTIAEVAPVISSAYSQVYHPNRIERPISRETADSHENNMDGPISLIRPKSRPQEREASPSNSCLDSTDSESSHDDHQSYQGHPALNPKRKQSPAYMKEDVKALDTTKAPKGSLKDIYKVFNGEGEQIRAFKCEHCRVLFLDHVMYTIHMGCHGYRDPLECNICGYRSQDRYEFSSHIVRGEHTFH
Sequence (Q96SW2 whole entry, further chain): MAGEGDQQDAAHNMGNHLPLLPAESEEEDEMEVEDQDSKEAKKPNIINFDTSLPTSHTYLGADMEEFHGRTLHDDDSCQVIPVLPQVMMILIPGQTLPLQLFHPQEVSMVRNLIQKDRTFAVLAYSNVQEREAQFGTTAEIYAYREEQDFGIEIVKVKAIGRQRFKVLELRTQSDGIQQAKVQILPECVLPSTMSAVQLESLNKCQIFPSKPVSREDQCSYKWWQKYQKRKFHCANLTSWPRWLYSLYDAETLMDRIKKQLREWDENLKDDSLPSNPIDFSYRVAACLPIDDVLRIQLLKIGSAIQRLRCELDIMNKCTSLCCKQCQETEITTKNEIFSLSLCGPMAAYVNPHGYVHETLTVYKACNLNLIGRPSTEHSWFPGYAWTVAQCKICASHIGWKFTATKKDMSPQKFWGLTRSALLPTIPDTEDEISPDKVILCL
Sequence (Q16531 whole entry partner): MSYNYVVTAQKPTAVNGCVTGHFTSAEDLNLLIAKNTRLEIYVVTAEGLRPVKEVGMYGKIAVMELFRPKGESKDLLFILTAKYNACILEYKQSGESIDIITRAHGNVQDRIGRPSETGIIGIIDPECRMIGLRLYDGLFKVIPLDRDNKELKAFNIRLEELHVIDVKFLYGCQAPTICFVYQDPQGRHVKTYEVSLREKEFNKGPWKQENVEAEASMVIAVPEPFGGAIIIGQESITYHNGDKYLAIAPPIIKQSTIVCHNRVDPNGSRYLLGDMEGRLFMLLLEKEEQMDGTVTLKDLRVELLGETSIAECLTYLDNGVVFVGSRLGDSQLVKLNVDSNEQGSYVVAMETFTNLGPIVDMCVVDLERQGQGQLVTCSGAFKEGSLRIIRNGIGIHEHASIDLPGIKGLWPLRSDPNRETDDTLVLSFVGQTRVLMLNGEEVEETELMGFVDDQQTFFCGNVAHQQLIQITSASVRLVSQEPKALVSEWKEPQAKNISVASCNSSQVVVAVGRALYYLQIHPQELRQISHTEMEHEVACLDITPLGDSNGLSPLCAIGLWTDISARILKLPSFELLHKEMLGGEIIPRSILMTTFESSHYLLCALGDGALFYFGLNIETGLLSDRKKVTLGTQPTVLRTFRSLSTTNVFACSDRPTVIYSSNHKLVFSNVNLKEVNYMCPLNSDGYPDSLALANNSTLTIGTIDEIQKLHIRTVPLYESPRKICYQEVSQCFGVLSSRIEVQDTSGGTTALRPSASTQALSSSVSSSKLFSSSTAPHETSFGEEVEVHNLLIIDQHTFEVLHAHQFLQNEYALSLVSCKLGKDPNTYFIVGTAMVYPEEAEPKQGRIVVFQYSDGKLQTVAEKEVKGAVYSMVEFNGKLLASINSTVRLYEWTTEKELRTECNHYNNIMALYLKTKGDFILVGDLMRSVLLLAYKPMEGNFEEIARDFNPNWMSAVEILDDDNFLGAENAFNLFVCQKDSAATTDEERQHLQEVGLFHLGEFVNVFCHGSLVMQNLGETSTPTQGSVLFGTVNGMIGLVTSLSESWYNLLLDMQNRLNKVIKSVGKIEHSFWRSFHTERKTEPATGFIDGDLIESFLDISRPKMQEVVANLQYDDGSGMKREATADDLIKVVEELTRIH
ASSAY REMARKS: IKZF2 reporter degradation assay (HEK 293T IKZF2-mNeonGreen reporter cell line)
Assay type: cell-based
CONDITION CONTEXT: HEK 293T IKZF2-mNeonGreen reporter, 24 hours incubation
VALUE KIND: DC50

Please review the entries below; each comes with its answer.
molecule="O=C1CCC(N2Cc3cc(O[C@@H]4CCCC[C@H]4N4CC(c5ncc(Cl)cn5)C4)ccc3C2=O)C(=O)N1 (single isomer, unassigned)" assayed_system="IKZF2 (Helios) (Homo sapiens)" value_kind=DC50 test_result="> 30 µM"
molecule="O=C1CCC(N2Cc3cc(O[C@H]4CCCC[C@H]4N4CC(c5ncc(C(F)(F)F)cn5)C4)ccc3C2=O)C(=O)N1 (single isomer, unassigned) [Compound 121-B]" assayed_system="IKZF2 (Helios) (Homo sapiens)" value_kind=DC50 test_result="> 30 µM"
molecule="O=C1CCC(N2Cc3cc(OC4CCCCC4N4CC(c5cncc(C(F)(F)F)c5)C4)ccc3C2=O)C(=O)N1 (stereo not drawn)" assayed_system="IKZF2 (Helios) (Homo sapiens)" value_kind=DC50 test_result="> 30 µM"

Prompt: Request: DC50, test system IKZF2 (Helios) (Homo sapiens), entry O=C1CCC(N2Cc3cc(O[C@@H]4CCCC[C@@H]4N4CC(c5cncc(Cl)c5)C4)ccc3C2=O)C(=O)N1 (mixture of isomers) [Compound 155-B]
Response: 0.011 µM

Prompt: Form field: DC50 recorded for O=C1CCC(N2Cc3cc(O[C@H]4CCCC[C@@H]4N4CC(c5ccc(C(F)(F)F)nc5)C4)ccc3C2=O)C(=O)N1 (mixture of isomers) [Compound 191-B] with IKZF2 (Helios) (Homo sapiens) (enter value)
Response: > 30 µM

Prompt: IKZF2 (Helios) (Homo sapiens) / DC50 / CC(C)(C)OC(=O)N1CCC(C2CN([C@H]3CCCC[C@@H]3Oc3ccc4c(c3)CN(C3CCC(=O)NC3=O)C4=O)C2)CC1 (stereo partly drawn) : value?
Response: 0.001 µM
